Biological target: T1, ABI1 (Clade A PP2C) (Arabidopsis, UniProt P49597 1-434)
T1 construct: Protein phosphatase 2C ABI1, Arabidopsis; source: purified with the similar procedures as described for CARK1-KD
T1 sequence (looked up): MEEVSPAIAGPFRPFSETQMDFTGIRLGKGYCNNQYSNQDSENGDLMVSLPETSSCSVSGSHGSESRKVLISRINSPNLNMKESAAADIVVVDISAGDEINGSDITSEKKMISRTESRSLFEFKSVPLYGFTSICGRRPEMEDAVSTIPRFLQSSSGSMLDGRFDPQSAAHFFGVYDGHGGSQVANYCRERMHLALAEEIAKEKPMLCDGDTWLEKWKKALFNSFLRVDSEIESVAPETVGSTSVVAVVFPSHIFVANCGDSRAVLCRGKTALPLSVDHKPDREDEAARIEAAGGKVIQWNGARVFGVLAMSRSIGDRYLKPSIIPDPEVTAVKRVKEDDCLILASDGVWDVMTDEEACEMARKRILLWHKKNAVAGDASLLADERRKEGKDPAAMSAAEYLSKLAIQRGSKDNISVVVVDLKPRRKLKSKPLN
Test: SPR; in vitro; who was immobilised and the conditions are not told in the main text (Supplementary Fig. S7A-E)
Details: both partners purified
Listing of entries alongside the reported Kd.
Give your result in µM as a bare value.

binder | Kd, µM
wild-type RCAR3 (purified, SPR and phosphatase assay) (receptor, Arabidopsis, UniProt Q9FGM1 1-188, looked up, ABA receptor RCAR3 (PYL8), Arabidopsis; a His-tagged RCAR3 is named for the in-gel kinase assay; also called PYL8; source: purified with the similar procedures as described for CARK1-KD) MEANGIENLTNPNQEREFIRRHHKHELVDNQCSSTLVKHINAPVHIVWSLVRRFDQPQKYKPFISRCVVKGNMEIGTVREVDVKSGLPATRSTERLELLDDNEHILSIRIVGGDHRLKNYSSIISLHPETIEGRIGTLVIESFVVDVPEGNTKDETCYFVEALIKCNLKSLADISERLAVQDTTESRV | 0.88

Entry RCAR3^S85R (interface point mutant) (receptor, Arabidopsis, UniProt Q9FGM1 1-188, looked up, ABA receptor RCAR3 (PYL8), Arabidopsis, with S85R; source: purified with the similar procedures as described for CARK1-KD) MEANGIENLTNPNQEREFIRRHHKHELVDNQCSSTLVKHINAPVHIVWSLVRRFDQPQKYKPFISRCVVKGNMEIGTVREVDVKRGLPATRSTERLELLDDNEHILSIRIVGGDHRLKNYSSIISLHPETIEGRIGTLVIESFVVDVPEGNTKDETCYFVEALIKCNLKSLADISERLAVQDTTESRV has what Kd?
11.3

Provenance of the data: paper PMC6006248
